system: Yap1 mRNA; experiment: Dose-dependent inhibition of human Yap1 in A-431 cells (Example 8, 10,000 cells per well, RTS4814); format: cell-based; details: 31.3 nM; A-431 cells, 10,000 cells per well, free uptake, approximately 48 hours, RTS4814
Strand notation (5' to 3'): a small letter for the sugar, then the base; units joined by * are phosphorothioate-linked, units joined directly phosphodiester-linked; [ ] holds rarer units or linkages, { } end groups; capitals alone tell only the bases. k = constrained ethyl (cEt); [5mC] = 5-methylcytosine; d = 2'-deoxy (DNA)
testReadout: Yap1 mRNA, % UTC (% UTC)

substance="1074418 (kT*kT*k[5mC]*dT*dT*dT*dA*dG*dA*dG*d[5mC]*d[5mC]*dA*kA*k[5mC]*kT; antisense) [compound 1074418]" testreadout="Yap1 mRNA, % UTC" quantitativereadout=55
substance="1075498 (k[5mC]*kA*kT*dT*dA*dT*dA*dT*dA*dA*dT*dG*d[5mC]*kA*kG*kG; antisense) [compound 1075498]" testreadout="Yap1 mRNA, % UTC" quantitativereadout=82
substance="1076466 (kA*kT*kT*dT*dA*dG*dA*dG*d[5mC]*dT*dT*dA*dA*kG*kG*kA; antisense) [compound 1076466]" testreadout="Yap1 mRNA, % UTC" quantitativereadout=43
substance="1075088 (kA*kT*kT*dT*dA*dT*dA*dG*dT*d[5mC]*dA*dG*dG*kT*kT*k[5mC]; antisense) [compound 1075088]" testreadout="Yap1 mRNA, % UTC" quantitativereadout=37
substance="1075749 (kA*kA*kT*dT*dA*dT*dG*dA*dA*dT*dG*dA*dT*kG*kG*kG; antisense) [compound 1075749]" testreadout="Yap1 mRNA, % UTC" quantitativereadout=46
substance="1076174 (kG*kA*kT*dA*dT*dA*dT*dG*dG*dT*dA*dG*d[5mC]*kA*kT*kA; antisense) [compound 1076174]" testreadout="Yap1 mRNA, % UTC" quantitativereadout=58

Attribution: patent US11214803B2
